Biological target: T1, His-tagged HM1.24 antigen, residues N49-A163 of the extracellular domain (UniProt Q10589 49-163)
T1 chain: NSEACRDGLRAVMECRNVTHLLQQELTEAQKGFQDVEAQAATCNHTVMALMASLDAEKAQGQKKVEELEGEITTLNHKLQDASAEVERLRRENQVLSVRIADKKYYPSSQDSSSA
Experiment: Biacore
result_type: koff (s⁻¹)

binder	value
HM1.24_H1L4 (antibody, V domains shown) VH: QVQLVQSGAEVKKPGASVKVSCKASGYTFTPYWMQWVRQAPGQGLEWMGSIFPGDGDTRYSQSFQGQVTISADKSISTAYMELSRLRSDDTAVYYCARGLRRGGYYFDYWGQGTLVTVSS VL: DIVMTQSPLSLPVTLGQPASISCKASQDVNTAVAWYLQKPGKSPKLLIYSASNRYTGVPDRITGSGSGTDFTLKISRVEAEDVGVYYCQQHYSTPFTFGSGTKLEIKR	0.00352
HM1.24_H1.3 heavy chain variant with HM1.24_L4 light chain (antibody, V domains shown) VH: QVQLVQSGAEVKKPGASVKVSCKASGYTFTPYWMQWVRQAPGQGLEWMGSIFPGDSDTRYSQSFQGQVTISADKSISTAYMELSRLRSDDTAVYYCARGLRRGGYYFDYWGQGTLVTVSS VL: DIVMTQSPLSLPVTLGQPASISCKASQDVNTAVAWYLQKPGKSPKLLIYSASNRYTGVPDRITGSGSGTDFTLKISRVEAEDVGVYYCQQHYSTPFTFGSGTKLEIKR	0.00261
HM1.24_H2.4 heavy chain variant with HM1.24_L4 light chain (antibody, V domains shown) VH: EVQLVESGGGLVKPGGSLRLSCAASGYTFTPYWMQWVRQAPGKGLEWMGSIFPGDADTRYSQSFQGQVTISADKSISTAYMELSSLRSEDTAVYYCARGLRRGGYYFDYWGQGTLVTVSS VL: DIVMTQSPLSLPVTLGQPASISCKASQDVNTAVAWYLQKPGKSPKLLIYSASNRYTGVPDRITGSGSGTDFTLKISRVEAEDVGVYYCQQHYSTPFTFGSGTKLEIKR	0.004
